- assayed-system: human dopamine receptor type 2, long variant (hD2L) (Homo sapiens (Human))
- assay-text: Functional calcium assay at hD2 recombinant receptor (CHO-Gα16-hD2L cells, FLIPR)
- Format: cell-based
- assay-conditions: functional pKi at hD2; dopamine EC80 challenge; read-out: D2 fp Ki (converted)
Counter-ions that a name gives are not always drawn.
# Ki per entry

In [3]: df
Out[3]:
                                   compound  measured_metric   result
0  Cc1ncoc1-c1nnc(SCCCN2CCO[C@H](c3ccc(C(F)(F)F)cc3)C2)n1C (single isomer, unassigned) [Example 10, hydrochloride]               Ki  > 10 µM

Returns the measured Ki for the input compound. Input: Cc1ncoc1-c1nnc(SCCCN2CCOC(c3ccc(F)cc3)C2)n1C (stereo not shown)
> 10 µM

Same question for Cc1ncoc1-c1nnc(SCCCCN2CCOC(c3ccc(C(F)(F)F)cc3)C2)n1C (stereo not shown) please.
> 10 µM

Same question for Cc1ccc(C2CN(CCCSc3nnc(-c4ccc(-c5noc(C)n5)cc4)n3C)CCO2)cc1 (stereo not shown) please.
31.6 µM

---

- assayed-system: UniProtKB P35462
- Sequence (P35462 whole entry): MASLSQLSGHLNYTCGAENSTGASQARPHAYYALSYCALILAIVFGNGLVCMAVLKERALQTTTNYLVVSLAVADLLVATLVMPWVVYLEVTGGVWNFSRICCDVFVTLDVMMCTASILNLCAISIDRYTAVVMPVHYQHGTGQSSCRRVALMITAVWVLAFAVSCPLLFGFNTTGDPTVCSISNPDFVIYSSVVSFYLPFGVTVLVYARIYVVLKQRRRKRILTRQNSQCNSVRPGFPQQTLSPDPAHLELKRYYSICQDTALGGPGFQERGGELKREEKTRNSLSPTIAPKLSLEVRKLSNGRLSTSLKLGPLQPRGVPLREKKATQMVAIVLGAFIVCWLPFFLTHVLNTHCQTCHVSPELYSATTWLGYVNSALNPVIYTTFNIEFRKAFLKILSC
- assay-text: [3H]-Spiperone binding assay at hD3 recombinant receptor (CHO-hD3 membranes)
- assay-conditions: pKi only estimated to be accurate to about ±0.3-0.5
measured-metric: D3 p Ki

>>> df
                                    compound  measured_metric  readout_number
 0  Cc1nc(-c2ccc(-c3nnc(SCCCN4CCOC(c5ccc(C(F)(F)F)cc5)C4)n3C)cc2)no1 (stereo not shown)          D3 p Ki            7.63
 1  Cc1ncoc1-c1nnc(SCCCN2CCOC(c3ccc(C(F)(F)F)cc3F)C2)n1C (stereo not shown)          D3 p Ki            6.71
 2  Cn1c(SCCCN2CCOC(c3ccc(C(F)(F)F)cc3)C2)nnc1-c1ccc(-n2cnnc2)cc1 (stereo not shown)          D3 p Ki             6.9
 3  Cc1ncoc1-c1nnc(SCCCN2CCOC(c3ccc(F)cc3)C2)n1C (stereo not shown) [Example 1]          D3 p Ki            6.37
 4  Cn1c(SCCCN2CCOC(c3ccc(C(F)(F)F)cc3)C2)nnc1-c1cccc(C(N)=O)c1 (stereo not shown)          D3 p Ki            6.53
 5  Cn1c(SCCCN2CCOC(c3ccc(C(F)(F)F)cc3)C2)nnc1-c1ccc(C#N)cc1 (stereo not shown)          D3 p Ki            6.97
 6  Cc1ncoc1-c1nnc(SCCCN2CCOC(c3ccc(F)cc3)C2)n1C (single isomer, unassigned) [Example 3]          D3 p Ki            6.56
 7  Cn1cccc1-c1nnc(SCCCN2CCOC(c3ccc(C(F)(F)F)cc3)C2)n1C (stereo not shown)          D3 p Ki             6.9
 8  Cn1c(SCCCN2CCOC(c3ccc(C(F)(F)F)cc3)C2)nnc1-c1ccc(-c2ncco2)cc1 (single isomer, unassigned) [Example 16]          D3 p Ki            8.23
 9  Cn1c(SCCCN2CCOC(c3ccc(C(F)(F)F)cc3F)C2)nnc1-c1ccc(C(N)=O)cc1 (stereo not shown)          D3 p Ki            7.06
10  Cc1ccc(C2CN(CCCSc3nnc(-c4ocnc4C)n3C)CCO2)cc1 (stereo not shown)          D3 p Ki            6.17
11  Cc1ncoc1-c1nnc(SCCCN2CCOC(c3ccc(Br)cc3)C2)n1C (stereo not shown)          D3 p Ki            6.72
12  Cn1c(SCCCN2CCOC(c3ccc(C(F)(F)F)cc3)C2)nnc1-c1nccs1 (stereo not shown)          D3 p Ki            6.55
13  Cn1c(SCCCN2CCOC(c3ccc(C(F)(F)F)cc3)C2)nnc1-c1cccnc1 (stereo not shown)          D3 p Ki            6.77
14  Cn1c(SCCCN2CCOC(c3ccc(C(F)(F)F)cc3)C2)nnc1-c1ccc(C(N)=O)cc1 (stereo not shown) [Example 11]          D3 p Ki            7.46
15  Cn1c(SCCCN2CCOC(c3ccc(C(F)(F)F)cc3)C2)nnc1C1CCCCC1 (stereo not shown)          D3 p Ki            7.36
